Test system: MDA-N
Assay: NCI tumour cell line growth inhibition, 48 h
metric.name: TGI

compound	value.reported
N#C/C(=C\c1ccc2[nH]ccc2c1)C(=O)NCCCCNC(=O)/C(C#N)=C/c1ccc2[nH]ccc2c1	> 10 µM
O=C(Nc1ccc(Cl)cc1C(F)(F)F)C(=O)Nn1c(=S)[nH]c2ccccc2c1=O	> 100 µM
O=C1[C@@H]2[C@@H](CN3CN(c4ccccc4)N=C(c4ccccc4)[C@@]23c2ccccc2)C(=O)N1c1ccccc1	20.1 µM
O=[N+]([O-])c1ccc(-n2nc3ccc4nonc4c3n2)cc1	> 100 µM
O=C(O)c1c(CC(Cc2ccc3c(c2)CCC3)C(=O)O)ccc2c1CCC2 (centres undefined)	> 100 µM
O=C(Nc1ccccc1)N1CCN(C(=O)Nc2ccccc2)C1=S	> 100 µM
CC(=O)NC1C(OCc2ccccc2)OC(CO)C(O)C1OC(C)C(=O)N[C@@H](C)C(=O)N[C@H](CCC(=O)NCCNCCNc1c2ccccc2nc2cccc([N+](=O)[O-])c12)C(N)=O (some centres undefined)	0.305 µM
[N-]=[N+]=CC(=O)CCC(N)C(=O)O (centres undefined)	> 250 µM
Nc1c(C(=O)c2ccc(Cl)c(Cl)c2)[nH]c(NCc2ccccc2)c1C(=S)Nc1ccccc1	14.5 µM
N[C@@H](CCC(=O)NC(Cc1ccccc1)C(=O)NCP(=O)(O)O)C(=O)O (some centres undefined)	> 100 µM
CN(CCCCCl)P(=O)(OCc1ccc([N+](=O)[O-])o1)OCC1OC(n2ccc(N)nc2=O)C(O)C1O (centres undefined)	40.3 µM
COC1CC(C)(NC(=O)C(F)(F)F)C2OC(c3ccccc3)OCC2O1 (centres undefined)	> 100 µM
COc1cc2c[n+]3c4c(c2c(OC)c1OC)CCCC4CC3 (centres undefined)	> 100 µM
O=C1c2ccccc2-c2nc3ccncc3n21	> 100 µM
Oc1ccc(C(O)C2CCCCN2)cc1O (centres undefined)	> 100 µM
COc1cc2c(cc1O)C1Cc3ccc(OC)c(O)c3C[N+]1(C)CC2 (centres undefined)	> 100 µM
COc1ccc(N2C(=O)C3c4[nH]c5c(C)cccc5c4C4CCC(C(C)C)CC4C3C2=O)cc1 (centres undefined)	29.2 µM
Cc1cccc(C2NC(=O)c3ccccc3N2)c1 (centres undefined)	3.45 µM
NCCO/C=C/C(N)C(=O)O (centres undefined)	> 100 µM
CC(=O)n1[nH]c(=O)n(-c2ccc(Cl)cc2)c1=O	> 100 µM
COC1/C=C/C(C)C(O)CC(O)/C=C/C(C)C(C(C)C(OC)C(C)CCC(=O)C(C)C(C/C=C/N(C)C=O)OC)OC(=O)/C=C/C=C(\C)CC(OC)CC2=CC(=O)O[C@@H](C(C)C(OC)C1)[C@H]2O (some centres undefined)	0.136 µM
Oc1ccc(Cl)cc1C=Nc1cnc2ccccc2c1	> 100 µM
CCOc1c(Br)cc(Br)cc1C=C(C#N)C#N	> 10 µM
Clc1ccc2c(NCCCCCCNc3ccnc4cc(Cl)ccc34)ccnc2c1	8.86 µM
Cc1ccccc1NC(=O)O/N=C(\Cl)C(C)C	8.58 µM
C=C(C)C1CC(=O)C(C)=C(O)C1 (centres undefined)	> 100 µM
Cn1/c(=N\N=C2\C=C3CCCCC3(C)CC2)sc2ccccc21 (centres undefined)	> 100 µM
Cc1nc(NC(C)(CO)CO)nc(N/N=C/c2ccc(Cl)cc2)c1C(=O)Nc1ccc(Cl)cc1	> 100 µM
COC(=O)c1sc(=O)sc1SCc1cccc(CSc2sc(=O)sc2C(=O)OC)c1	> 100 µM
COC1(CC[C@@H](C)COC2OC(CO)C(O)C(O)C2O)OC2C[C@H]3[C@@H]4CC[C@H]5C[C@@H](OC6OC(CO)C(OC7OC(CO)C(O)C(O)C7O)C(O)C6OC6OC(C)C(O)C(O)C6O)[C@H](O)C[C@]5(C)[C@H]4CC[C@]3(C)C2[C@@H]1C (some centres undefined)	4.55 µM
CC(Nc1ccc(Cl)cc1)c1ccncc1 (centres undefined)	> 100 µM
CC(C)Cc1cnc(CC(C)C)c(=O)[nH]1	> 100 µM
CCC1(O)CC(CCN(Cc2ccccc2)C(=O)OCc2ccccc2)C(OCc2ccccc2)C1O (centres undefined)	98.8 µM
Nc1[nH]c(=O)nc2c1ncn2C1OC(CO)C(O)C1O (centres undefined)	> 100 µM
